- EXPERIMENT_DESCRIPTION: Long-term/accelerated stability of crystal forms (25° C. 60% RH and 40° C. 75% RH)
- Format: physicochemical
- MEASUREMENT_SETUP: 25° C., 60% RH, 1 month
Below, each entry is listed alongside its reported Purity % 1 month.
READOUT_NAME: Purity % 1 month

{"COMPOUND": "N#Cc1ccc(N2CCC(Sc3ccc(COc4cccc5c4CN([C@H]4CCC(=O)NC4=O)C5=O)cn3)CC2)c(F)c1 [Crystal form Q]", "RESULT": "99.5%"}
{"COMPOUND": "N#Cc1ccc(N2CCC(Sc3ccc(COc4cccc5c4CN([C@H]4CCC(=O)NC4=O)C5=O)cn3)CC2)c(F)c1 [Crystal form D]", "RESULT": "97.8%"}
{"COMPOUND": "N#Cc1ccc(N2CCC(Sc3ccc(COc4cccc5c4CN([C@H]4CCC(=O)NC4=O)C5=O)cn3)CC2)c(F)c1 [Crystal form E]", "RESULT": "97.9%"}
{"COMPOUND": "N#Cc1ccc(N2CCC(Sc3ccc(COc4cccc5c4CN([C@H]4CCC(=O)NC4=O)C5=O)cn3)CC2)c(F)c1 [Crystal form U]", "RESULT": "99.7%"}

Ref: patent US20250154126A1
